- System: DU-145 prostate
- Procedure text: NCI-60 one-dose screen, 48 h (100 = growth as untreated, 0 = no growth, -100 = all killed)
- Stated conditions: 10 µM
About 83,000 compounds went through this panel and 20% of them were active in at least one assay; those are over-represented in the sample as a whole.
Measurement name: growth (%)
Record the value in %, omitting the unit from your answer.

Molecule	Measurement name	Endpoint result
CN1C(=O)CN2CCc3ccccc3C2c2cc(Cl)ccc21 (centres undefined)	growth	119

Entry `O=C(c1ccccc1)C1CCC1` : reported growth = ? 117

Entry `COc1cc(/C=N\Nc2ccccc2)ccc1OC(=O)c1ccccc1` : reported growth = ? 55.3

Entry `CCCCNC1(C#N)CCN(Cc2ccccc2)CC1` : reported growth = ? 135

Entry CCCCCCCCCCC1CO1 (centres undefined) : reported growth = ? 108

Entry `CCOc1ccc2[nH]c(=S)sc2c1` : reported growth = ? 111

Entry `Cc1cc(N2CCC(N3CCCC3)CC2)nc(/N=C(\N)Nc2ccc(Cl)c(Cl)c2)n1` : reported growth = ? 16.3

Entry `COc1ccc2c(NCCCCCCCCNc3c4ccccc4nc4cc(OC)ccc34)c3ccccc3nc2c1` : reported growth = ? -100

Entry `NC(=S)NN=C1CCCC1` : reported growth = ? 96.8
